Target: FLT-3 kinase domain recombinant protein (Homo sapiens)
Construct: 50 μL FLT-3 kinase domain recombinant protein diluted with reaction buffer to initiate the reaction
Sequence (P36888 610-943 limits assumed): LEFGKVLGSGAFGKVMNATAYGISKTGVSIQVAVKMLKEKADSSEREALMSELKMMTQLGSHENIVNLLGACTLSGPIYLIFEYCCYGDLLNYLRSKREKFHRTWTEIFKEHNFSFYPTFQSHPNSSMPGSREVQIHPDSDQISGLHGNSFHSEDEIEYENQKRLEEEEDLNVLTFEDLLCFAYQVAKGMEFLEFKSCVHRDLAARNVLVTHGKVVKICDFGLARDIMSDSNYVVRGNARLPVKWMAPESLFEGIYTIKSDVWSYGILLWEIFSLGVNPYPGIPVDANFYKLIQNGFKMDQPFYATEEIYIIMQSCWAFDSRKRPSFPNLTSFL
Experimental Protocol: Inhibition rate on FLT3 kinase (ELISA)
Assay type: biochemical
Condition Parameters: compound 100 nM; two values per compound; 0.1 µM
Readout Kind: Inhibition rate (%) against receptor tyrosine kinase FLT-3

* CCc1ccc2c(c1)c(=O)c(C(=O)Nc1ccc(Oc3ncnc4cc(OCCCN5CCN(C)CC5)c(OC)cc34)c(F)c1)c(C)n2C | 83.0%
* COc1cc2ncnc(Oc3ccc(NC(=O)c4cn(-c5ccc(F)cc5)c5cc(N6CCNCC6)c(F)cc5c4=O)cc3F)c2cc1OC | 44.5%
* CCc1ccc2c(c1)c(=O)c(C(=O)Nc1ccc(Oc3ncnc4[nH]cc(-c5ccccc5)c34)c(F)c1)c(C)n2C | 70.4%
* CCc1ccc2c(c1)c(=O)c(C(=O)Nc1ccc(Oc3ccnc(N)c3Cl)c(F)c1)c(C)n2C | 63.8%
* CCc1ccc2c(c1)c(=O)c(C(=O)Nc1ccc(Oc3ncnc4cc(OCCN(C)C)c(OC)cc34)c(F)c1)c(C)n2C | 79.5%
* COc1cc2ncnc(Oc3ccc(NC(=O)c4cn5c6c(cc(C)cc6c4=O)CCC5)cc3F)c2cc1OC | 56.6%
* Cc1c(C(=O)Nc2ccc(Oc3ncnc4[nH]cc(-c5ccccc5)c34)c(F)c2)c(=O)c2cc(OC(F)(F)F)ccc2n1C | 70.2%
* Cc1c(C(=O)Nc2ccc(Oc3ncnc4[nH]cc(-c5ccccc5)c34)c(F)c2)c(=O)c2cc(C(F)(F)F)ccc2n1C | 63.3%
* COc1cc2ncnc(Oc3ccc(NC(=O)c4cn5c6c(c(N7CCN(C)CC7)c(F)cc6c4=O)OCN5C)cc3F)c2cc1OC | 57.4%
* CCc1ccc2c(c1)c(=O)c(C(=O)Nc1ccc(Oc3ncnc4[nH]cc(-c5ccccc5)c34)c(F)c1)c(CC)n2C | 53.3%
* CCc1ccc2c(c1)c(=O)c(C(=O)Nc1ccc(Oc3ncnc4[nH]cc(-c5ccccc5)c34)c(C)c1)c(C)n2C | 66.1%
* Cc1c(C(=O)Nc2ccc(Oc3ncnc4[nH]cc(-c5ccccc5)c34)c(F)c2)c(=O)c2cc(C(C)(C)C)ccc2n1C | 65.8%
* COc1cc2ncnc(Oc3ccc(NC(=O)c4cn(C5CC5)c5cc(N6CCNCC6)c(F)cc5c4=O)cc3F)c2cc1OC | 51.8%
* CCc1ccc2c(c1)c(=O)c(C(=O)Nc1ccc(Oc3ncnc4[nH]cc(-c5ccc(OC)cc5)c34)c(F)c1)c(C)n2C | 66.5%

* * *

Experimental Protocol: In vivo pharmacokinetic and bioavailability experiments of rats
Design: species or system SD rats
Condition Parameters: Sprague-Dawley, rat, plasma; SD rats, Po, 25 mg/kg single dose
Readout Kind: AUC(0-inf) (ng·h/mL)

- COc1cc2ncnc(Oc3ccc(NC(=O)c4cn5c6c(c(N7CCN(C)CC7)c(F)cc6c4=O)OCN5C)cc3F)c2cc1OC: 12200
- CCc1ccc2c(c1)c(=O)c(C(=O)Nc1ccc(Oc3ncnc4cc(OCCN(C)C)c(OC)cc34)c(F)c1)c(C)n2C: 25600
- COc1cc2ncnc(Oc3ccc(NC(=O)c4cn5c6c(c(N7CCC(O)CC7)c(F)cc6c4=O)CCC5C)cc3F)c2cc1OC (stereo not shown): 25900
- CCc1ccc2c(c1)c(=O)c(C(=O)Nc1ccc(Oc3ncnc4cc(OCCN5CCCC5)c(OC)cc34)c(F)c1)c(C)n2C: 50300
